Where these numbers come from: ChEMBL document CHEMBL6134871

test: Tmax in C57 mouse at 5 mg/kg, ip; type: ADME, organism-based; conditions: in vivo
assay-readout: Tmax
// unit must come after the numeric part

INSERT INTO results (compound, data_value) VALUES
  ('COc1cc2c(cc1OCCCCN1C(=O)/C(=C\c3cc(Br)c(O)c(OC)c3)c3cc(Br)ccc31)C(C)(CC(=O)Nc1nccs1)NCC2 (configuration not stated)', '60 min');

Next:
Query :: // fetch Tmax given entry COc1cc2c(cc1OCCOCCOCCOCCN1C(=O)/C(=C\c3cc(Br)c(O)c(Br)c3)c3cc(I)ccc31)C(C)(CC(=O)Nc1nccs1)NCC2 (configuration not stated)
Result :: 30 min

###

assay: AUC (0 to infinity) in C57 mouse at 5 mg/kg, iv; assay type: ADME, organism-based; conditions: C57, mouse, in vivo
assay-readout: AUC(0-inf) (ng·h/mL)
Give bare numbers, in ng·h/mL.

Query :: // fetch AUC(0-inf) given entry COc1cc2c(cc1OCCCCN1C(=O)/C(=C\c3cc(Br)c(O)c(OC)c3)c3cc(Br)ccc31)C(C)(CC(=O)Nc1nccs1)NCC2 (stereo unspecified)
Result :: 10600

###

experiment: AUC (0 to t) in C57 mouse at 5 mg/kg, ip; format: ADME, organism-based; conditions: in vivo
Give AUC(0-t) for every item shown.
Numbers only, in ng·h/mL.

INSERT INTO assay_data (compound, data_value) VALUES
  ('COc1cc2c(cc1OCCCCN1C(=O)/C(=C\c3cc(Br)c(O)c(OC)c3)c3cc(Br)ccc31)C(C)(CC(=O)Nc1nccs1)NCC2 (configuration not stated)', 951);

Next:
Query :: // fetch AUC(0-t) given entry COc1cc2c(cc1OCCOCCOCCOCCN1C(=O)/C(=C\c3cc(Br)c(O)c(Br)c3)c3cc(I)ccc31)C(C)(CC(=O)Nc1nccs1)NCC2 (configuration not stated)
Result :: 6070

###

assay: Tmax in C57 mouse at 5 mg/kg, po; assay type: ADME, organism-based; conditions: in vivo
Give Tmax for every item shown.
One number for each entry, in min.

INSERT INTO assay_data (molecule, data_value) VALUES
  ('COc1cc2c(cc1OCCOCCOCCOCCN1C(=O)/C(=C\c3cc(Br)c(O)c(Br)c3)c3cc(I)ccc31)C(C)(CC(=O)Nc1nccs1)NCC2 (configuration not stated)', 15);

Next:
Query :: // fetch Tmax given entry COc1cc2c(cc1OCCCCN1C(=O)/C(=C\c3cc(Br)c(O)c(OC)c3)c3cc(Br)ccc31)C(C)(CC(=O)Nc1nccs1)NCC2 (configuration not stated)
Result :: 60
